- target.entity: Heat shock protein HSP90 (Homo sapiens, UniProt P07900+P08238)
- assay.comment: Inhibition of HSP90 in human SKBR3 cells assessed as induction of Her2 degradation
- Type: cell-based
- test.settings: sk-br-3
endpoint.label: IC50

Examples with answers:
In [3]: df
Out[3]:
                                   molecule  endpoint_label      result
0  COc1ccnc(CN2CC(=O)N(CC(C)C)c3c(Cl)nc(N)nc32)c1OC            IC50      160 nM
1  COc1c(C)cnc(CN2CC(=O)N(C)c3c(Cl)nc(N)nc32)c1C            IC50      930 nM
2  COc1c(C)cnc(CN2CC(OC3CCCC3)=Nc3c(Cl)nc(N)nc32)c1C            IC50       10 nM
3  COc1c(C)cnc(CN2CC(=O)N(CCCN3CCOCC3)c3c(Cl)nc(N)nc32)c1C            IC50     1550 nM
4  COc1c(C)cnc(Cn2c(=O)cnc3c(Cl)nc(N)nc32)c1C            IC50  > 10000 nM

Challenge: Returns the measured IC50 for the input molecule. Input: `COc1c(C)cnc(CN2CC(=O)N(CCN3CCCC3)c3c(Cl)nc(N)nc32)c1C`
Response given: 510 nM

Challenge: Can you check `COc1c(C)cnc(CN2CC(=O)N(CC(C)C)c3c(C)nc(N)nc32)c1C` next?
Response given: 980 nM

Challenge: Can you check COc1c(C)cnc(CN2CC(=O)N(C(C)C(=O)NCCN(C)C)c3c(Cl)nc(N)nc32)c1C (centres undefined) next?
Response given: 100 nM

Challenge: Can you check `COc1c(C)cnc(CN2c3nc(N)nc(Cl)c3N(C(C)C)C(=O)[C@@H]2C(C)C)c1C` next?
Response given: 60 nM
